# TEST_TARGET: Bromodomain-containing protein 4 (Homo sapiens)
# EXPERIMENTAL_PROTOCOL: TR-FRET In-Vitro Binding Assays for BRD2, BRD3, and BRD4: All assays were performed in 384 well microtiter plates. Each assay plate contained 8-point serial dilutions for 40 test compounds, plus 16 high- and 16 low controls. Liquid handling and incubation steps were done on an Innovadyne Nanodrop Express equipped with a robotic arm (Thermo CatX, Perkin Elmer/Caliper Twister II) and an incubator (Liconic STX40, Thermo Cytomat 2C450). The assay plates were prepared by addition of 50 nl per well of compound solution in 90% DMSO HummingBird nanodispenser (Zinsser Analytic). The assay was started by stepwise addition of 4.5 μl per well of bromo domain protein (50 mM HEPES, pH 7.5, 0.005% Tween20, 0.1% BSA, 50 mM NaCl, 45 nM His-Brd2(60-472) or 45 nM His-Brd3(20-477) or 45 nM His-Brd4(44-477) all proteins produced in-house) and 4.5 μl per well of peptide solution (50 mM HEPES, pH 7.5, 0.005% Tween20, 0.1% BSA, 50 mM NaCl, 60 nM acetyl-histone H4 (AcK 5, 8, 12, 16) (Biosyntan GmbH)). Reactions were incubated at 30° C. for 35 minutes. Subsequently 4.5 μl per well detection mix (50 mM HEPES, pH 7.5, 0.005% Tween20, 0.1% BSA, 50 mM NaCl, 3 nM Eu-labeled anti-His6 antibody, 21 nM streptavidin-allophycocyanin) were added. After 35 minutes incubation at 30° C., plates were measured in a Perkin Elmer EnVision multilabel reader. Concentrations causing 50% inhibition (1050) values were determined from percent inhibition values at different compound concentrations by non-linear regression analysis.
Record form. Attribute: pIC50. Fill in for each entry.
Hey, just a heads up that pIC50 is the negative log base 10 of the concentration in molar.

Entry CCOc1ncccc1-n1nc(C)c2c1C(c1ccc(Cl)cc1)N(c1cc(C)c(=O)n(C)c1)C2=O (configuration not stated) : reported pIC50 = ?
7.10

Entry COc1ncccc1-n1nc(C)c2c1C(c1ccc(Cl)cc1)N(c1cc(C)c(=O)n(C)c1)C2=O (configuration not stated) : reported pIC50 = ?
7.07
